Tested on: ATP;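 note: ATP exposure 15 min at 22 °C before imaging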
Assay: switch fluorescence ratio, 500 uM ATP over buffer (Cy3 cluster intensity, sum of 5 cycles each) (fold (ratio)); higher = stronger signal-on switching upon ATP binding; sequences stand for … in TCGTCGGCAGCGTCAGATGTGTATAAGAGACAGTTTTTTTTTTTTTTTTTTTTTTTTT…TC
Conditions: aptamer strand: ATP DNA aptamer (quencher-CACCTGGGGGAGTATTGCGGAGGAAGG + anchor), 100 nM annealed; ATP concentration: 500 uM
Reported values of switch fluorescence ratio for individual entries
I'd appreciate a reply containing only the number, no unit.

Examples with answers:
1. GCCACCGTTT    1.06
2. TTACTGGGGT    1.02
3. GTGTTTTTGA    1.01
4. TTTCGGGGGC    0.993
5. AAGTCTCGGG    0.995

Now for another entry.
Ask | Name the recorded switch fluorescence ratio for `CGGCGCCCA` .
Reply | 0.997

====

Tested on: ATP;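 note: ATP exposure 15 min at 22 °C before imaging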
Experiment: switch fluorescence ratio, 500 uM ATP over buffer (Cy3 cluster intensity, sum of 5 cycles each) (fold (ratio)); higher = stronger signal-on switching upon ATP binding; sequences stand for … in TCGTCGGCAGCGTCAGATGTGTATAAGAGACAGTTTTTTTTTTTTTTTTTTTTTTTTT…TC
Details: aptamer strand: ATP DNA aptamer (quencher-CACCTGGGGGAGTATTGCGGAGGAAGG + anchor), 100 nM annealed; ATP concentration: 500 uM
Recorded metric: switch fluorescence ratio

Examples with answers:
1) GATTCGGCTA    1.02
2) TTTGCGAGCG    1.01
3) AAGGATGTGG    0.977
4) TTGCTGTGAG    0.976
5) TTGGCTATTT    0.998

Ask | Name the recorded switch fluorescence ratio for `TTATAAAGCG` .
Reply | 1.05

Ask | Name the recorded switch fluorescence ratio for `AACTATTGAA` .
Reply | 1

Ask | Name the recorded switch fluorescence ratio for `ACGAGATGGT` .
Reply | 1.02

====

Reported values of switch fluorescence ratio for individual entries
Test system: ATP;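 note: ATP exposure 15 min at 22 °C before imaging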
Test: switch fluorescence ratio, 500 uM ATP over buffer (Cy3 cluster intensity, sum of 5 cycles each) (fold (ratio)); higher = stronger signal-on switching upon ATP binding; sequences stand for … in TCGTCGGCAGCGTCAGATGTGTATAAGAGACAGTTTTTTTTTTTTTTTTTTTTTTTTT…TC
Conditions: aptamer strand: ATP DNA aptamer (quencher-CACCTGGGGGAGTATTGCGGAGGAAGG + anchor), 100 nM annealed; ATP concentration: 500 uM
I'd appreciate a reply containing only the number, no unit.

Ask | Name the recorded switch fluorescence ratio for `AAAACTTAGA` .
Reply | 0.956

Ask | Name the recorded switch fluorescence ratio for `CTAAGTTGGG` .
Reply | 1.1

====

Reported values of switch fluorescence ratio for individual entries
System: ATP;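 note: ATP exposure 15 min at 22 °C before imaging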
Test: switch fluorescence ratio, 500 uM ATP over buffer (Cy3 cluster intensity, sum of 5 cycles each) (fold (ratio)); higher = stronger signal-on switching upon ATP binding; sequences stand for … in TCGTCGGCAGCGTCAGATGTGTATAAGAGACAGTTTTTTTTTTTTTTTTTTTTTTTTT…TC
Conditions: aptamer strand: ATP DNA aptamer (quencher-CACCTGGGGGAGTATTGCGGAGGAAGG + anchor), 100 nM annealed; ATP concentration: 500 uM
I'd appreciate a reply containing only the number, no unit.

Examples with answers:
1) GGGGATTTAT    0.997
2) CGGTGGGGCG    1
3) AAAAACGGGG    1.01

Ask | Name the recorded switch fluorescence ratio for `TTGCATGATG` .
Reply | 0.961

Ask | Name the recorded switch fluorescence ratio for `CAGGGGATTA` .
Reply | 1

Ask | Name the recorded switch fluorescence ratio for `GGTGTTGCAA` .
Reply | 1.02

Ask | Name the recorded switch fluorescence ratio for `TGCAGTCTGT` .
Reply | 0.988

Ask | Name the recorded switch fluorescence ratio for `TTTTATGTG` .
Reply | 1.01
